- Tested on: HFF cells
- testSummary: MTT cytotoxicity on HFF host cells
- Format: cell-based
- runParameters: human
HFF LD50 for assorted compounds
resultType: HFF LD50 (µM)

> print(dat)
                                 smilesrepr  resulttype  unitstring  signqualifier  measurement
1      COc1cccc(CC(=O)Nc2ccc(C(=O)NO)cc2)c1    HFF LD50          µM              =          105
2        O=C(NO)c1ccc(NC(=O)c2cccc(F)c2)cc1    HFF LD50          µM              >          400
3       O=C(NO)c1ccc(CNC(=O)c2cccc(F)c2)cc1    HFF LD50          µM              =         58.3
4  Cc1nc(-c2ccc(C(=O)NCc3ccc(C(=O)NO)cc3)cc2)cs1    HFF LD50          µM              =         22.6
5    O=C(NO)c1ccc(NS(=O)(=O)c2cccc(F)c2)cc1    HFF LD50          µM              =        116.5
6   O=C(NO)c1ccc(CNS(=O)(=O)c2cccc(F)c2)cc1    HFF LD50          µM              =        300.0
7  Cc1nc(-c2ccc(C(=O)Nc3ccc(C(=O)NO)cc3)cc2)cs1    HFF LD50          µM              =         25.0
8     COc1cccc(CC(=O)NCc2ccc(C(=O)NO)cc2)c1    HFF LD50          µM              >          400

---

THP-1 LD50 values for the compounds below.
- Test system: THP-1 cells
- testSummary: MTT cytotoxicity on THP-1 host cells
- Assay type: cell-based
- runParameters: human
- Protocol: Antiparasitic activity of a compound is represented by ICo50, which is calculated with Prism software (Prism4 for MacOSX Version 5.0b, December 2008). The cytoxicity of a compound against the host cells of L. infantum and T. gondii, such as THP-1 or HFF cells, was determined with a MTT assay, according to previously described protocol (Sereno et al., Antimicrob Agents Chemother. 2001, 45(4):1168-73). THP-1 is derived from the peripheral blood ofa human with acute monocytic leukemia.
resultType: THP-1 LD50

> print(dat)
                                   compound  resulttype      measurement
1  O=C(NO)c1ccc(NC(=O)c2cccc(F)c2)cc1 [Compound 349]  THP-1 LD50     264 ± 8.0 µM
2  Cc1nc(-c2ccc(C(=O)NCc3ccc(C(=O)NO)cc3)cc2)cs1 [Compound 360]  THP-1 LD50     2.2 ± 0.5 µM
3  O=C(NO)c1ccc(CNS(=O)(=O)c2cccc(F)c2)cc1 [Compound 350]  THP-1 LD50          >400 µM
4  O=C(NO)c1ccc(CNC(=O)c2cccc(F)c2)cc1 [Compound 345]  THP-1 LD50  1.7. +/− 0.5 μM
5  Cc1nc(-c2ccc(C(=O)Nc3ccc(C(=O)NO)cc3)cc2)cs1 [Compound 361]  THP-1 LD50          >400 µM
6  COc1cccc(CC(=O)NCc2ccc(C(=O)NO)cc2)c1 [Compound 362]  THP-1 LD50    30.5 ± 3.0 µM
7  COc1cccc(CC(=O)Nc2ccc(C(=O)NO)cc2)c1 [Compound 363]  THP-1 LD50     3.6 ± 0.5 µM

---

- Test system: HDAC activity from HELA nuclear extract
- testSummary: Fluorimetric HDAC assay, HeLa nuclear extract
- Type: biochemical, human
- runParameters: read-out: IC50 (better HDAC inhibitor among 9 tested compounds)
- Procedure: HDAC inhibitory activity was determined by a fluorimetric HDAC assay kit (Active-motif, Belgium), according to manufacturer's instructions. […] Fluorogenic substrate (10 μL) was added, reaction was allowed to proceed for 30 min at room temperature, then stopped by the addition of a developer containing Tichostatin A.
resultType: IC50 (nM)

> print(dat)
                                 smilesrepr  resulttype  unitstring  measurement
1  Cc1nc(-c2ccc(C(=O)NCc3ccc(C(=O)NO)cc3)cc2)cs1        IC50          nM         2200
2       O=C(NO)c1ccc(CNC(=O)c2cccc(F)c2)cc1        IC50          nM         1700
3      COc1cccc(CC(=O)Nc2ccc(C(=O)NO)cc2)c1        IC50          nM         3600

---

// IC50 lookup, one value per entry
- Test system: Leishmania infantum luciferase expressing strain (MHOM/MA/ITMAP269)
- testSummary: microbe, parasite or virus in culture
- Type: cell-based
- runParameters: Leishmania infantum, read-out: L. infantum IC50
resultType: IC50 (µM)

> print(dat)
                                   compound  signqualifier  measurement
1  O=C(NO)c1ccccc1 [ST3, hydroxybenzamide, reference compound]              =         29.3
2  Cc1nc(-c2ccc(C(=O)Nc3ccc(C(=O)NO)cc3)cc2)cs1              >           60

---

IC50 for assorted compounds
- Test system: HDAC activity from HELA nuclear extract
- Construct: HELA Nuclear extracts IC50; other: HeLa nuclear extract, fluorimetric HDAC kit; […]
- testSummary: Fluorimetric HDAC assay, HeLa nuclear extract
- Type: biochemical, human
- runParameters: text summary of Table 1, less active compounds; read-out: HDAC inhibitory activity against HeLa cell nuclear extract
resultType: IC50

> print(dat)
                                 smilesrepr  measurement
1  Cc1nc(-c2ccc(C(=O)Nc3ccc(C(=O)NO)cc3)cc2)cs1     ~1000 nM
2   O=C(NO)c1ccc(CNS(=O)(=O)c2cccc(F)c2)cc1     ~1000 nM

---

- studySystem: recombinant HDAC 8 (Homo sapiens, UniProt Q9BY41)
- Sequence (Q9BY41 1-377): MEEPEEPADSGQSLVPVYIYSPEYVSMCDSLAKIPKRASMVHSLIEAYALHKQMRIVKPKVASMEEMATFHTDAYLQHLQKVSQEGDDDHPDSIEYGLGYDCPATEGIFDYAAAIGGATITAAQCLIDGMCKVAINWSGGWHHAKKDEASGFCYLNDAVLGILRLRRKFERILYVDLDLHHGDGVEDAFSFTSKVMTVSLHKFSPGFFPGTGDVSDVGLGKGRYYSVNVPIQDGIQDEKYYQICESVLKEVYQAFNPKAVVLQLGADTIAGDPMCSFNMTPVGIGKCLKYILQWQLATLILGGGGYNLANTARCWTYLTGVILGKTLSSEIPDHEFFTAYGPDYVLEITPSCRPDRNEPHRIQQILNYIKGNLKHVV
- testSummary: Recombinant HDAC8 inhibition
resultType: IC50

> print(dat)
                                   compound  resulttype  measurement
1  COc1cccc(CC(=O)Nc2ccc(C(=O)NO)cc2)c1 [Compound 363]        IC50       863 nM

---

- studySystem: recombinant HDAC6 (Homo sapiens, UniProt Q9UBN7)
- Sequence (Q9UBN7 1-1215): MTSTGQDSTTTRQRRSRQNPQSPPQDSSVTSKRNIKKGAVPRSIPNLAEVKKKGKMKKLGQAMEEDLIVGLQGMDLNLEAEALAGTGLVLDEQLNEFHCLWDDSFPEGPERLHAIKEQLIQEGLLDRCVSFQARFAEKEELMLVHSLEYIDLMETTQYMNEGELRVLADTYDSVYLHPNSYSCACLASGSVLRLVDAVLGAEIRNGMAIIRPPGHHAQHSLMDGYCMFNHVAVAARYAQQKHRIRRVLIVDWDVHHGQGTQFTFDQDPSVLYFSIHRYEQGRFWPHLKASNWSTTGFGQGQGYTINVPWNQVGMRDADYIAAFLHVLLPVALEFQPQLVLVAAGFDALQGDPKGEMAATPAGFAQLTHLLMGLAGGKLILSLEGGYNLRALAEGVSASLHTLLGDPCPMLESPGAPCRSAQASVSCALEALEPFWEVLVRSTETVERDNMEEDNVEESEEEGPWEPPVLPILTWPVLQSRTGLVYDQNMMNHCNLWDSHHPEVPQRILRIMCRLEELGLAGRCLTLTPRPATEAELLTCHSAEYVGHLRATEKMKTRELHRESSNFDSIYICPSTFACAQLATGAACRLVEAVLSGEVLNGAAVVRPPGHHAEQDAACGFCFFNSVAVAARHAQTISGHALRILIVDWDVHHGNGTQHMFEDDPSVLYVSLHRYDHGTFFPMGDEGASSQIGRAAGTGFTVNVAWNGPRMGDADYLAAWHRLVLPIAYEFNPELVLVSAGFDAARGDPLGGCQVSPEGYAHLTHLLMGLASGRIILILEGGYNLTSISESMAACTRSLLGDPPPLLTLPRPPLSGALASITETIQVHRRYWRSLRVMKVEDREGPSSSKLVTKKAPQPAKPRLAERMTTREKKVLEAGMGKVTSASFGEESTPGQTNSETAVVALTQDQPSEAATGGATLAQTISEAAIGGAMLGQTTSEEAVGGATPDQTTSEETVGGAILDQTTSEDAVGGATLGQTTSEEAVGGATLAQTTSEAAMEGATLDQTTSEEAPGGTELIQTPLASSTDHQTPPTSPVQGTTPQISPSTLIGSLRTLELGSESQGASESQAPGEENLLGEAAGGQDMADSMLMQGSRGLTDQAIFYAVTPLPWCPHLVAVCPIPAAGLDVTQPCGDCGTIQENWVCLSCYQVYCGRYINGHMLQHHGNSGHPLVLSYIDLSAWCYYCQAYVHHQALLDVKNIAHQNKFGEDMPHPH
- testSummary: Recombinant HDAC6 inhibition
Measured IC50 by item
resultType: IC50 (µM)

> print(dat)
                                   compound  measurement
1  COc1cccc(CC(=O)Nc2ccc(C(=O)NO)cc2)c1 [Compound 363]        0.045
2  COc1ccccc1CNC(=O)c1ccc(C(=O)NO)cc1 [Compound D16, reference compound]        0.198

Source of measurements: patent US20190040004A1
